Each recorded value in this set is attributed to patent US20170050957A1.

pest or weed control at 35 g/ha values by entry
System: Key Broadleaf Weed and Crop Species
Experiment: Post-emergent Test II herbicidal activity (Table 15)
Format: in vivo
Conditions: Euphorbia heterophylla, post-emergence, 336 h, wild poinsettia (Euphorbia heterophylla), 35 g ai/ha, 14 d, read-out: Visual Growth Reduction (%) 14 Days After Application, EPHHL
reported-property: pest or weed control at 35 g/ha

# molecular-string, reported-property, assay-value
rows = [
    ("Nc1cc(-c2ccc3ccsc3c2)nc(C(=O)O)c1Cl", "pest or weed control at 35 g/ha", "60 to 74%"),
    ("Cn1ccc2cc(-c3nc(C(=O)O)c(Cl)c(N)c3F)ccc21", "pest or weed control at 35 g/ha", "95 to 100%"),
    ("COc1c(N)nc(-c2cc3[nH]ccc3cc2F)nc1C(=O)O", "pest or weed control at 35 g/ha", "0 to 29%"),
    ("COC(=O)c1nc(-c2ccc3cn[nH]c3c2)c(F)c(N)c1Cl", "pest or weed control at 35 g/ha", "60 to 74%"),
    ("COC(=O)c1nc(-c2ccc(Cl)c3occc23)nc(N)c1OC", "pest or weed control at 35 g/ha", "0 to 29%"),
    ("Nc1c(Cl)c(C(=O)O)nc(-c2ccc3cc[nH]c3c2)c1Cl", "pest or weed control at 35 g/ha", "0 to 29%"),
    ("COC(=O)c1nc(-c2ccc3[nH]ncc3c2)c(F)c(N)c1Cl", "pest or weed control at 35 g/ha", "0 to 29%"),
    ("COC(=O)c1nc(-c2cccc3sccc23)c(F)c(N)c1Cl", "pest or weed control at 35 g/ha", "0 to 29%"),
    ("Nc1cc(-c2cc3[nH]ccc3cc2F)nc(C(=O)O)c1Cl", "pest or weed control at 35 g/ha", "0 to 29%"),
    ("COC(=O)c1nc(-c2ccc(Cl)c3[nH]ccc23)cc(N)c1Cl", "pest or weed control at 35 g/ha", "45 to 59%"),
    ("COC(=O)c1nc(-c2ccc3ccoc3c2F)nc(N)c1OC", "pest or weed control at 35 g/ha", "95 to 100%"),
    ("COC(=O)c1nc(-c2ccc3cc[nH]c3c2F)c(F)c(N)c1Cl", "pest or weed control at 35 g/ha", "95 to 100%"),
    ("COC(=O)c1nc(-c2ccc3sccc3c2)c(F)c(N)c1Cl", "pest or weed control at 35 g/ha", "95 to 100%"),
    ("COC(=O)c1nc(-c2ccc3c(ccn3C)c2)c(F)c(N)c1Cl", "pest or weed control at 35 g/ha", "95 to 100%"),
    ("Nc1c(F)c(-c2ccc3ccsc3c2)nc(C(=O)O)c1Cl", "pest or weed control at 35 g/ha", "0 to 29%"),
    ("C=Cc1c(C(=O)O)nc(-c2ccc3cc[nH]c3c2F)c(F)c1N", "pest or weed control at 35 g/ha", "95 to 100%"),
    ("COc1c(N)nc(-c2ccc3cc[nH]c3c2F)nc1C(=O)O", "pest or weed control at 35 g/ha", "75 to 84%"),
    ("COC(=O)c1nc(-c2ccc(Cl)c3cc[nH]c23)c(F)c(N)c1Cl", "pest or weed control at 35 g/ha", "0 to 29%"),
    ("COc1c(C(=O)O)nc(-c2ccc3cc[nH]c3c2F)c(F)c1N", "pest or weed control at 35 g/ha", "95 to 100%"),
]
